All figures here come from patent US20240182556A1.

Biological target: T1, PE9413, C-terminal biotinylated peptide mapping on Exon6 of the SCF molecule (SCF248) (C-terminal biotin)
T1 construct: also called C-terminal biotinylated PE9413; C-ter PE9413
T1 peptide: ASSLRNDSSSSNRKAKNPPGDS
Experiment: yeast-displayed scFv, flow cytometry titration of biotinylated peptide

| Binder | Display unit | Kd |
| --- | --- | --- |
| B114P scFv displayed on yeast (scFv, V domains shown, Aga2-anchored, VH-VL orientation; not shown: linker; SV5 tag) VH: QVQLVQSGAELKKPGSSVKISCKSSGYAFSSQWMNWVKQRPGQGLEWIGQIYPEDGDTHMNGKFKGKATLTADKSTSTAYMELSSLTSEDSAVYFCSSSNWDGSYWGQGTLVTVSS VL: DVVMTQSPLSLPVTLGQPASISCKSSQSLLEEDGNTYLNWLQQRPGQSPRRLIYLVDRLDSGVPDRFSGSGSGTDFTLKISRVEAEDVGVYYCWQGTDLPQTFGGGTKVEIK | nM | 3.63 |
| B104P scFv displayed on yeast (scFv, V domains shown, Aga2-anchored, VH-VL orientation; not shown: linker; SV5 tag) VH: QVQLVQSGAELKKPGSSVKISCKSSGYAFSSQWMNWVKQRPGQGLEWIGQIYPDDGDTHYNDKFKGKATLTADKSTSTAYMELSSLTSEDSAVYFCSSSNWVGSYWGQGTLVTVSS VL: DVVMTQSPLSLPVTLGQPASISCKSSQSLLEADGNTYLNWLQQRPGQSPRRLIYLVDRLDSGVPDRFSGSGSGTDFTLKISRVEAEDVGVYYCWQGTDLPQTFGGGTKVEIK | nM | 4.52 |
| D14P scFv displayed on yeast (scFv, V domains shown, Aga2-anchored, VH-VL orientation; not shown: linker; SV5 tag) VH: QVQLVQSGAELKKPGSSVKISCKSSGYAFSSQWMNWVKQRPGQGLEWIGQIYPGDDDTHYNDKFKGKATLTADKSTSTAYMELSSLTSEDSAVYFCSSSNWVGSYWGQGTLVTVSS VL: DVVMTQSPLSLPVTLGQPASISCKSSQSLLESDGNTYLNWLQQRPGQSPRRLIYLVDRLDLGVPDRFSGSGSGTDFTLKISRVEAEDVGVYYCWQGTDLPQTFGGGTKVEIK | nM | 4.39 |
| F54P scFv displayed on yeast (scFv, V domains shown, Aga2-anchored, VH-VL orientation; not shown: linker; SV5 tag) VH: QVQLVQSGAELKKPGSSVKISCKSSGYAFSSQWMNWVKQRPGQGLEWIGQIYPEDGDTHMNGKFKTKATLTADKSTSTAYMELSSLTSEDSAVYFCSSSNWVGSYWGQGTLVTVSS VL: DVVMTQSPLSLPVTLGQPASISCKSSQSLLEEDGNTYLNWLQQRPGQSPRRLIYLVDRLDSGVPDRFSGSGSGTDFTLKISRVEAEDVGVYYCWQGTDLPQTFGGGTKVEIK | nM | 4.09 |
